- Tested on: PANC-1 cells
- Protocol Notes: CCK-8 anti-proliferative assay, PANC-1
- Type: cell-based, human
- Condition Set: Homo sapiens, PANC-1; Table 11; co-incubated 48 h; read-out: Anti-proliferative activity (IC50 ± standard deviation) PANC-1
Attribute Measured: IC50 (µM)
Give the quantity in µM, number only.

- Smiles Notation: "COc1cc2ncnc(NCc3cccc(NC(=O)Nc4ccc(Cl)cc4Cl)c3)c2cc1OCCCCCCN1CCC(CN2CCN(c3ccccn3)CC2)CC1"
  Attribute Measured: "IC50"
  Endpoint Value: 14.6

Query: Which IC50 value is on record for COc1cc2ncnc(NCc3cccc(NC(=O)NC4CCCCC4)c3)c2cc1OCCCCCCN1CCC(CN2CCN(c3ccccn3)CC2)CC1 ?
Response: 14.9

Query: Which IC50 value is on record for CCc1cccc(CC)c1NC(=O)Nc1cccc(CNc2ncnc3cc(OC)c(OCCCCCCN4CCC(CN5CCN(c6ccccn6)CC5)CC4)cc23)c1 ?
Response: 4.88
